The origin of these recorded values is patent US6147068A.

- ASSAY_DETAILS: Nitric oxide release profile of NONOates (nitric oxide analyzer)
- Type: physicochemical
- EXPERIMENTAL_CONDITIONS: 5% & 10% survanta, half-life (NO release)
- Description: Using a Monitor Labs Model 8440 Nitric Oxide Analyzer, interfaced with an HP 3396 A Chromatography Integrator, the nitric oxide release from the above synthesized NONOates was measured. […] Based on these release profiles, the half-life and % Release for each NONOate prepared above was calculated and is represented in Table I, which represents NO release in PBS at pH 7.4.
VALUE_TYPE: half-life (h)
All answers are understood in h, so give the number only.

Prompt: For CC(C)CCC[C@@H](C)[C@H]1CC[C@H]2[C@@H]3CC=C4C[C@@H](OC(=O)CCN(CCCCN)[N+]([O-])=NO)CC[C@]4(C)[C@H]3CC[C@]12C [CPNO, Cholesterylputreanine-NONOate] , what is its reported half-life?
Completion: 39
